These entries and their values trace back to ChEMBL document CHEMBL2321704.

procedureSummary: Kinetic solubility of the compound by dry down method
Assay type: physicochemical
protocolConditions: read-out: Kinetic_solubility
parameter: log10(solubility kinetic) (log10 of the value in µM)
A difference of one corresponds to tenfold solubility kinetic; all values are log10 with solubility kinetic in µM.

Consider the following illustrative entries.
                                   molecule  datavalue
0  Clc1ccccc1-c1ocnc1-c1cc2c(s1)-c1ncccc1OCC2       1.61
1  NC(=O)c1ccc2c(c1)OCCc1cc(-c3nncn3-c3ccccc3Cl)sc1-2       0.95
2  Nc1nc(-c2cc3c(s2)-c2ccccc2OCC3)c(-c2ccccc2Cl)s1       0.60
3  NC(=O)c1ccc2c(c1)OCCc1cc(-c3n[nH]cc3-c3ccccc3Cl)sc1-2       1.08
4  NC(=O)c1ccc2c(c1)OCCc1cc(-c3n[nH]c(=O)n3-c3ccccc3Cl)sc1-2       1.18

Query: Answer with reported log10(solubility kinetic) of `Fc1ccc(-n2ncnc2-c2cc3c(s2)-c2ccccc2OCC3)c(F)c1`
Result: 0.61

Query: For the compound `CN(C(=O)c1cc2c(s1)-c1ncccc1OCC2)c1ccccc1Cl` , report log10(solubility kinetic).
Result: 1.61

Query: Quote log10(solubility kinetic) reported for `Clc1ccccc1-n1cnnc1-c1cc2c(s1)-c1ccccc1OCC2` please.
Result: 1.18
